- Test system: ATS95
- assay-procedure: qHTS profiling for inhibitors of Plasmodium falciparum proliferation (AID 504749); also: nearly all actives have a fitted effect of over 60% in size
- study-conditions: P. falciparum in erythrocytes, SYBR Green DNA, 72 h; series mostly up to 28.7 µM
Inconclusive results are not listed. Calls of active or inactive are those of the source. Calls follow the shape of the dose curve; as a rule, active = well fitted inhibition curve with a large enough effect; inconclusive = small, poorly fitted or top-dose-only effect; inactive = flat fitted curve, though single readings scatter. Numbered stars: 1 amine (or outer) side, 2 acyl side, 3 side chain; on linkers, the order of the positions; unused ones are H or OH. Bridge positions count the residues as written; N and C are the ends. Square brackets hold non-standard residues; d marks the D form. Peptide text beside a SMILES is read from it. I, II: the chains in the order shown. Actinocin(9to1) = Cc1c2oc3c(C)ccc(C(=O)[*:1])c3nc-2c(C(=O)[*:2])c(N)c1=O; NMeV = CN[C@H](C(=O)O)C(C)C; Sar = CNCC(=O)O
Classes to choose from: true for active, false for inactive

Incoming: Record request — test call for `C[C@@H]1C(=O)NC2=Nc3cccc(Cl)c3CN21`
Outgoing: false

Incoming: Record request — test call for `NCCc1ccn[nH]1`
Outgoing: false

Incoming: Record request — test call for `COC(=O)[C@@H]1CC2=CC(=O)CC[C@]2(C)[C@@]23O[C@@H]2C[C@@]2(C)[C@@H](CC[C@@]24CCC(=O)O4)[C@H]13`
Outgoing: false

Incoming: Record request — test call for `NC(=NCCCCCCN=C(N)/N=C(\N)Nc1ccc(Cl)cc1)/N=C(\N)Nc1ccc(Cl)cc1`
Outgoing: true

Incoming: Record request — test call for `CC(C)COC(=O)OCN1C(=O)CN(CCN2CC(=O)N(COC(=O)OCC(C)C)C(=O)C2)CC1=O`
Outgoing: false

Incoming: Record request — test call for Cc1c2oc3c(C)ccc(C(=O)N[C@@H]4C(=O)N[C@H](C(C)C)C(=O)N5CCC[C@H]5C(=O)N(C)CC(=O)N(C)[C@@H](C(C)C)C(=O)O[C@@H]4C)c3nc-2c(C(=O)N[C@@H]2C(=O)N[C@H](C(C)C)C(=O)N3CCC[C@H]3C(=O)N(C)CC(=O)N(C)[C@@H](C(C)C)C(=O)O[C@@H]2C)c(N)c1=O (I: T[dV]P[Sar][NMeV] / II: T[dV]P[Sar][NMeV]; ester I:1-I:C, II:1-II:C; linker I:N-II:N via Actinocin(9to1))
Outgoing: true

Incoming: Record request — test call for `CCOC(=O)COc1ccc2c(C)c(CCN(CC)CC)c(=O)oc2c1Cl`
Outgoing: false

* * *

- assay-procedure: MultiTox-Fluor Cytotoxicity Assay - LYMP1-003 - Dead Cells (AID 961);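 also: cells exposed to compound for 16 h at 37 °C; nearly all actives have a fitted effect of over 70% in size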
- study-conditions: LYMP1-003 lymphoblastoid cells, dead-cell protease fluorescence; series mostly up to 92.2 µM
The source made the active and inactive calls. Calls come from the whole dose curve; as a rule, active = well fitted cell-killing curve with a large enough effect; inconclusive = small, poorly fitted or top-dose-only effect, or effect the other way; inactive = flat fitted curve, though single readings scatter.
Classes to choose from: active, inactive

INSERT INTO assay_data (structure_notation, class_label) VALUES
  ('C[C@]12CC[C@@H]3c4ccc(O)cc4CC[C@H]3[C@@H]1CC[C@@H]2O', 'inactive'),
  ('Oc1ccc(O)cc1', 'active');

Incoming: Record request — test call for `Oc1c(Cl)cc(Cl)cc1Sc1cc(Cl)cc(Cl)c1O`
Outgoing: inactive

* * *

- System: 7G8
- assay-procedure: qHTS profiling for inhibitors of Plasmodium falciparum proliferation (AID 504749); also: nearly all actives have a fitted effect of over 60% in size; also: potency is read from the fitted curve at half-maximal effect
- study-conditions: P. falciparum in erythrocytes, SYBR Green DNA, 72 h; series mostly up to 28.7 µM
Results filed as inconclusive are left out. The source made the active and inactive calls. Calls come from the whole dose curve; as a rule, active = well fitted inhibition curve with a large enough effect; inconclusive = small, poorly fitted or top-dose-only effect; inactive = flat fitted curve, though single readings scatter.
# key: entry, value: Potency

Examples with their reported Potency follow.
INSERT INTO assay_data (structure_notation, measured_parameter, result) VALUES
  ('CCOc1ccc2nc3cc(N)ccc3c(N)c2c1', 'Potency', '1.78 µM (active)'),
  ('CCCCCCCCCCCCCCNCCO', 'Potency', '10 µM (active)');

Pending compound:
Incoming: Recorded Potency for `CCCCCCC[N+](CC)(CC)CCCCc1ccc(Cl)cc1` , please?
Outgoing: 0.631 µM (active)

* * *

- assay-procedure: Cell Viability - LYMP2-012 (AID 982);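 also: cellular ATP by luciferase luminescence where a drop means cytotoxicity; cells exposed to compound for one day before reading; nearly all actives have a fitted effect of over 55% in size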; also: potency is read from the fitted curve at half-maximal effect
- study-conditions: LYMP2-012 lymphoblastoid cell viability qHTS; series mostly up to 92.2 µM
- Text: NIH Chemical Genomics Center [NCGC] NIH Molecular Libraries Screening Centers Network [MLSCN] National Institutes of Environmental Health Sciences [NIEHS] National Toxicology Program [NTP] We have developed a 1536-well cell-based assay for quantitative high throughput screening (qHTS) against a number of cell lines to determine in vitro cytotoxicity of small molecules. […] 8. Detection; Luminescence; Viewlux plate reader […]
Results filed as inconclusive are left out. Calls of active or inactive are those of the source. Calls come from the whole dose curve; as a rule, active = well fitted cell-killing curve with a large enough effect; inconclusive = small, poorly fitted or top-dose-only effect; inactive = flat fitted curve, though single readings scatter.
measured-parameter: Potency

INSERT INTO assay_data (structure_notation, measured_parameter, result) VALUES
  ('C=CCc1ccc(O)c(OC)c1', 'Potency', 'inactive'),
  ('CN(C)/N=N/c1nc[nH]c1C(N)=O', 'Potency', 'inactive'),
  ('O=C(O)CCCCC(=O)O', 'Potency', 'inactive'),
  ('C=C(CC)C(=O)c1ccc(OCC(=O)O)c(Cl)c1Cl', 'Potency', '39.8 µM (active)'),
  ('COC1=CC(=O)C[C@@H](C)[C@]12Oc1c(Cl)c(OC)cc(OC)c1C2=O', 'Potency', 'inactive');

Incoming: Recorded Potency for `C[C@]12CC[C@@H]3c4ccc(O)cc4CC[C@H]3[C@@H]1CC[C@@H]2O` , please?
Outgoing: inactive

Incoming: Recorded Potency for `CC(=O)O[C@]1(C(C)=O)CC[C@H]2[C@@H]3C[C@H](C)C4=CC(=O)CC[C@]4(C)[C@H]3CC[C@@]21C` , please?
Outgoing: 31.6 µM (active)

Incoming: Recorded Potency for `CC(=O)Oc1ccc(C(c2ccc(OC(C)=O)cc2)c2ccccn2)cc1` , please?
Outgoing: inactive

* * *

- System: HeLa
- assay-procedure: Primary qHTS to identify gynecologic anti-cancer compounds using libraries of approved drugs and bioactive compounds (AID 1345084); also: nearly all actives have a fitted effect of over 55% in size
- study-conditions: Gynecologic cancer cell panel viability, ATPlite luminescence, 48 h; series mostly up to 57.5 µM
Inconclusive results are not listed. Active and inactive are the calls of the source. Calls follow the shape of the dose curve; as a rule, active = well fitted cell-killing curve with a large enough effect; inconclusive = small, poorly fitted or top-dose-only effect, or effect the other way; inactive = flat fitted curve, though single readings scatter.
Classes to choose from: active, inactive

Use these answered entries as a reference point.
INSERT INTO assay_data (molecule, class_label) VALUES
  ('COc1cccc2c1C(=O)c1c(O)c3c(c(O)c1C2=O)C[C@@](O)(C(=O)CO)C[C@@H]3O[C@H]1C[C@H](N)[C@H](O)[C@H](C)O1', 'active'),
  ('CC(C)(C)CC(C)(C)c1ccc(OCCOCC[N+](C)(C)Cc2ccccc2)cc1', 'inactive'),
  ('CC(=O)OCC(=O)[C@@]12N=C(C)O[C@@H]1C[C@H]1[C@@H]3CCC4=CC(=O)C=C[C@]4(C)[C@H]3[C@@H](O)C[C@@]12C', 'inactive'),
  ('CN(C(=O)CN(CCO)CC(=O)N(C)C(C)(C)Cc1ccccc1)C(C)(C)Cc1ccccc1', 'inactive'),
  ('CC(C)COC(=O)c1ccc(N)cc1', 'inactive'),
  ('CCCCOc1ccc(C(=O)CCN2CCCCC2)cc1', 'inactive');

Incoming: Record request — test call for CN=C(NC#N)Nc1ccc(C2=NNC(=O)CC2C)cc1 (stereo not drawn)
Outgoing: inactive

Incoming: Record request — test call for `Cc1cc(=O)n(-c2ccccc2)n1C`
Outgoing: inactive

Incoming: Record request — test call for `CC(=O)N(O)CCCCCNC(=O)CCC(=O)N(O)CCCCCNC(=O)CCC(=O)N(O)CCCCCN`
Outgoing: inactive

Incoming: Record request — test call for `O=C(N/N=C/c1ccccc1O)c1ccncc1`
Outgoing: inactive

Incoming: Record request — test call for `CC(=O)Oc1ccc2c(c1)CC[C@@H]1[C@@H]2CC[C@]2(C)[C@@H](O)CC[C@@H]12`
Outgoing: active

Incoming: Record request — test call for `CCCCS(=O)(=O)N[C@@H](Cc1ccc(OCCCCC2CCNCC2)cc1)C(=O)O`
Outgoing: inactive

Incoming: Record request — test call for `CCCCOc1ccc(OCCCN2CCOCC2)cc1`
Outgoing: inactive

Incoming: Record request — test call for `NC(=O)c1cc[n+](CC2=C(C(=O)[O-])N3C(=O)[C@@H](NC(=O)Cc4cccs4)[C@H]3SC2)cc1`
Outgoing: inactive

Incoming: Record request — test call for `COc1cc2c(cc1OC)[C@@H]1CC(=O)[C@@H](CC(C)C)CN1CC2`
Outgoing: inactive

Incoming: Record request — test call for COc1cccc(CCc2ccccc2OCC(CN(C)C)OC(=O)CCC(=O)O)c1 (stereo not drawn)
Outgoing: inactive

Incoming: Record request — test call for `CC(=O)OCC(=O)[C@@]1(OC(C)=O)[C@@H](C)C[C@H]2[C@@H]3C[C@H](F)C4=CC(=O)C=C[C@]4(C)[C@@]3(F)[C@@H](O)C[C@@]21C`
Outgoing: inactive

Incoming: Record request — test call for COc1cc(N)c(Cl)cc1C(=O)NC1CCN(CCCOc2ccc(F)cc2)CC1OC (stereo not drawn)
Outgoing: inactive
